kon values for the binders below.
- Target Or Test System: T1, human ADAMTS5 (human, UniProt Q9UNA0 262-622, limits assumed)
- T1 construct: Octet and ELISA used 'recombinant human ADAMTS5'; also called recombinant human ADAMTS5; ADAMTS5 (R&D Systems 2198-AD)
- T1 sequence: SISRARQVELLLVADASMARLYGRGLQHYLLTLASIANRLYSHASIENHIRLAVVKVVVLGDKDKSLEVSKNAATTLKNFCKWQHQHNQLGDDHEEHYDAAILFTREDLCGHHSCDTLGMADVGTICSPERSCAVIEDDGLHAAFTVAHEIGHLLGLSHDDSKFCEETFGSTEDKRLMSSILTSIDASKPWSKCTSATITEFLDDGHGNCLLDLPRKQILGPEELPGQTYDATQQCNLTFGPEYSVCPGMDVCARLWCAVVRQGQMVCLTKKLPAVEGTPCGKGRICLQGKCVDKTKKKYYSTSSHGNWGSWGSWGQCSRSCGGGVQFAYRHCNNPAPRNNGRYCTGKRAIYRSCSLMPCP
- Experiment Description: Biacore, mAb from culture supernatant captured on anti-human IgG, ADAMTS5 (R&D 2198-AD) at 64 nM, 1:1 fit
Note: unit M⁻¹ s⁻¹ is implicit; provide only the numeric part.

binder="BPC1647 (antibody, human IgG1, kappa, V domains shown, Humanized, human gamma 1 / kappa; also called 7B4 H6L1) VH: EVQLVESGGGLVQPGGSLRLSCAASGFTSSDAWMDWVRQAPGKGLEWVAEIRNKANNHARHYAESVKGRFTISRDDAKNSVYLQMNSLRAEDTAVYYCTRTYYYGSSYGYCDVWGQGTLVTVSS VL: DIQMTQSPSSLSASVGDRVTITCRTSENIYSYLAWYQQKPGKAPKLLVYNAKTLAEGVPSRFSGSGSGTDFTLTISSLQPEDFATYYCQHHYGTPWTFGQGTKLEIKR" recorded_result=1.48e+06

Recorded kon of BPC1643 (antibody, human IgG1, kappa, V domains shown, Humanized, human gamma 1 / kappa; also called 7B4 H2L1) VH: EVQLVESGGGLVQPGGSLRLSCAASGFTSSDAWMDWVRQAPGKGLEWVAEIRNKANNHARHYAESVKGRFTISRDNAKNSLYLQMNSLRAEDTAVYYCARTYYYGSSYGYCDVWGQGTLVTVSS VL: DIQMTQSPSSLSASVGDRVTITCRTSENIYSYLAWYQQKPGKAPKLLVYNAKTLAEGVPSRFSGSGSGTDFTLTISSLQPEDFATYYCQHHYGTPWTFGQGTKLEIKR , please.
1.36e+06
